Provide the recorded inhibition at 10 µg/mL for the entries that follow.
# Test system: Xanthomonas oryzae pv. oryzae Xoo
# assay-summary: microbe, parasite or virus in culture
# experimental-parameters: read-out: Inhibition (%) 10 (mg/L)
Numbers only, in %.

Known results for compounds:
{"compound": "CS(=O)(=O)c1nnc(CNC(=O)c2ccc(Br)o2)o1 [compound 5]", "inhibition at 10 µg/mL / %": 96.3}
{"compound": "CS(=O)(=O)c1nnc(CNC(=O)c2ccc(F)cc2F)o1 [compound 23]", "inhibition at 10 µg/mL / %": 95.7}
{"compound": "Cc1ccc(C(=O)NCc2nnc(S(C)(=O)=O)o2)c(C)c1 [compound 18]", "inhibition at 10 µg/mL / %": 98.8}
{"compound": "CS(=O)(=O)c1nnc(CNC(=O)c2ncc(C(F)(F)F)cc2Cl)o1 [compound 6]", "inhibition at 10 µg/mL / %": 94.8}
{"compound": "CCS(=O)(=O)c1nnc(CNC(=O)C=Cc2ccc(F)cc2)o1 [compound 11]", "inhibition at 10 µg/mL / %": 98.8}
{"compound": "CCS(=O)(=O)c1nnc(CNC(=O)C=Cc2ccccc2)o1 [compound 9]", "inhibition at 10 µg/mL / %": 100}
{"compound": "CCS(=O)(=O)c1nnc(CNC(=O)c2ncc(C(F)(F)F)cc2Cl)o1 [compound 7]", "inhibition at 10 µg/mL / %": 48.1}
{"compound": "CCS(=O)(=O)c1nnc(CNC(=O)C=Cc2ccc(Cl)cc2)o1 [compound 15]", "inhibition at 10 µg/mL / %": 98.1}

Let's switch to this compound now.
**Query** Given CCS(=O)(=O)c1nnc(CNC(=O)c2ccc(Cl)s2)o1 [compound 4] , respond with its inhibition at 10 µg/mL.
**Result** 98.3

###

# System: Xanthomonas oryzae pv. oryzae Xoo
# assay-summary: microbe, parasite or virus in culture
# experimental-parameters: read-out: Inhibition (%) 10 (mg/L)
readout-label: inhibition at 10 µg/mL (%)
Numbers only, in %.

The examples below pair each entry with its known result.
{"molecule": "CS(=O)(=O)c1nnc(CNC(=O)C=Cc2ccccc2)o1 [compound 8]", "inhibition at 10 µg/mL, %": 99.7}
{"molecule": "CS(=O)(=O)c1nnc(CNC(=O)C=Cc2ccc(Cl)cc2)o1 [compound 14]", "inhibition at 10 µg/mL, %": 97.6}
{"molecule": "CCS(=O)(=O)c1nnc(CNC(=O)C=Cc2cccs2)o1 [compound 2]", "inhibition at 10 µg/mL, %": 85}
{"molecule": "Cc1ccc(C=CC(=O)NCc2nnc(S(C)(=O)=O)o2)cc1 [compound 12]", "inhibition at 10 µg/mL, %": 99.5}
{"molecule": "CS(=O)(=O)c1nnc(CNC(=O)C=Cc2ccc(Cl)cc2Cl)o1 [compound 16]", "inhibition at 10 µg/mL, %": 98.9}

// for each molecule below, give its inhibition at 10 µg/mL
1. CS(=O)(=O)c1nnc(CNC(=O)c2ccc(Cl)s2)o1 [compound 3]
2. CCS(=O)(=O)c1nnc(CNC(=O)C=Cc2ccc(C)cc2)o1 [compound 13]

**Result**
1: 98.6; 2: 99.5

###

# Test system: Xanthomonas oryzae pv. oryzae Xoo
# assay-summary: microbe, parasite or virus in culture
# experimental-parameters: read-out: Inhibition (%) 10 (mg/L)
readout-label: inhibition at 10 µg/mL (%)
Give bare numbers, in %.

{"molecule-smiles": "S=c1[nH]nc(NCNc2n[nH]c(=S)s2)s1", "inhibition at 10 µg/mL / %": 2.5}
{"molecule-smiles": "CS(=O)(=O)c1nnc(CNC(=O)C=Cc2ccc(F)cc2)o1", "inhibition at 10 µg/mL / %": 99}

Please state, for each entry, its recorded inhibition at 10 µg/mL.
1. CS(=O)(=O)c1nnc(CNC(=O)c2ccc(C(F)(F)F)cc2)o1
2. CS(=O)(=O)c1nnc(CNC(=O)c2c(F)cccc2F)o1
3. CS(=O)(=O)c1nnc(CNC(=O)c2ccc(F)cc2)o1
4. CCS(=O)(=O)c1nnc(CNC(=O)c2ccc(C)cc2C)o1
5. Cc1ccc(C(=O)NCc2nnc(S(C)(=O)=O)o2)cc1
6. CC(=CC(=O)NCc1nnc(S(C)(=O)=O)o1)c1ccccc1

**Result**
1: 99.7; 2: 97.4; 3: 99.4; 4: 97.2; 5: 99.4; 6: 99.4

Please report inhibition at 10 µg/mL for every entry that follows.
1. CS(=O)(=O)c1nnc(CNC(=O)C=Cc2cccs2)o1
2. CS(=O)(=O)c1nnc(CNC(=O)c2ccc(Cl)cc2)o1

**Result**
1. 96.2
2. 99.9
